molecules and their reported Blood pressure
Test system: blood pressure in rats
test: Effects on blood pressure in rats
Type: in vivo, SD rats
measurement-setup: 40 mg/kg intragastric; time point 120
Protocol: SD rats (male, weight 160-180 g) were fasted for 12 hours before administration but had free access to drinking water. The rats were randomly divided into groups. They were anesthetized with an intraperitoneal injection of 50-60 mg/kg dose of sodium pentobarbital. Each rat was fixed on the back on the surgical table. The skin was cut from the center of the neck, and an incision of about 2.5 cm was made. […] Heart rate and blood pressure were measured at different time points after administration.
# output: number + unit

Input: Form field: reported Blood pressure of [2H]C([2H])([2H])Oc1cc2c(cc1OC)CCN1Cc3c(ccc(OC([2H])([2H])[2H])c3OC)C[C@@H]21
Output: 110.00 ± 11.6 mmHg

----------
Test system: rat formalin model
test: Analgesic effects of intragastric administration in a rat formalin model
Format: in vivo, SD rats
measurement-setup: 20 mg/kg intragastric; licking time 0-5 min after formalin; mean ± SD
Experimental: SD rats (male, weight 160-180 g) were randomly divided into groups with 6 rats in each group. After the rats were intragastrically administered different doses separately, they were placed in PVC observation boxes for habituation. After 30 min, the rats were injected subcutaneously with 20 μL of 2.7% formalin solution into the plantar surface of the left hind paws, and quickly put back in the PVC observation boxes for observation. […] The experimental data were expressed as mean±standard deviation. […]
Measured Reaction time for phase I, listed per entry for reference.
Provide the reading as a plain figure in s.

Solved cases (3 shown):
[2H]C([2H])([2H])Oc1ccc2c(c1OC)CN1CCc3cc(OC)c(OC)cc3[C@@H]1C2 = 82.1
[2H]C([2H])([2H])Oc1cc2c(cc1OC)CCN1Cc3c(ccc(OC)c3OC([2H])([2H])[2H])C[C@@H]21 = 85.8
[2H]C([2H])([2H])Oc1cc2c(cc1OC([2H])([2H])[2H])[C@@H]1Cc3ccc(OC([2H])([2H])[2H])c(OC([2H])([2H])[2H])c3CN1CC2 = 45.2

Input: I have this compound here, [2H]C([2H])([2H])Oc1cc2c(cc1OC)CCN1Cc3c(ccc(OC([2H])([2H])[2H])c3OC)C[C@@H]21 , and I need its recorded Reaction time for phase I.
Output: 41.9

Input: Ok, now [2H]C([2H])([2H])Oc1cc2c(cc1OC)CCN1Cc3c(ccc(OC)c3OC)C[C@@H]21
Output: 79.6

Input: What do we get for [2H]C([2H])([2H])Oc1cc2c(cc1OC)[C@@H]1Cc3ccc(OC)c(OC)c3CN1CC2 ?
Output: 90.3

Input: Do the same for [2H]C([2H])([2H])Oc1c(OC)ccc2c1CN1CCc3cc(OC)c(OC)cc3[C@@H]1C2 please
Output: 82.4

Input: Again, but for COc1cc2c(cc1OC)[C@@H]1Cc3ccc(OC)c(OC)c3CN1CC2 [THP, L-tetrahydropalmatine, reference compound]
Output: 86.8

----------
Listed compounds paired with reported Heart rate
System: heart rate in rats
test: Effects on heart rate in rats
Assay type: in vivo, SD rats
measurement-setup: 20 mg/kg intragastric; time point 30
Please provide the amount together with its unit, number first.

Example compounds with recorded Heart rate:
COc1cc2c(cc1OC)[C@@H]1Cc3ccc(OC)c(OC)c3CN1CC2 [THP, L-tetrahydropalmatine, reference compound] = 377.1 ± 52.3 BTM
[2H]C([2H])([2H])Oc1cc2c(cc1OC)CCN1Cc3c(ccc(OC([2H])([2H])[2H])c3OC)C[C@@H]21 [Formula I6] = 400.2 ± 29.4 BTM
[2H]C([2H])([2H])Oc1ccc2c(c1OC)CN1CCc3cc(OC)c(OC)cc3[C@@H]1C2 [Formula I2] = 378.3 ± 30.3 BTM

Here's the next entry for you.
Input: Which Heart rate is reported for this compound? [2H]C([2H])([2H])Oc1cc2c(cc1OC([2H])([2H])[2H])[C@@H]1Cc3ccc(OC([2H])([2H])[2H])c(OC([2H])([2H])[2H])c3CN1CC2 [Formula I7]
Output: 380.8 ± 33.4 BTM

----------
System: heart rate in rats
test: Effects on heart rate in rats
Type: in vivo, SD rats
measurement-setup: 20 mg/kg intragastric; time point 60
Listed here are compounds together with their documented Heart rate.
Give the quantity in BTM, number only.

Please review the entries below; each comes with its answer.
[2H]C([2H])([2H])Oc1cc2c(cc1OC)CCN1Cc3c(ccc(OC([2H])([2H])[2H])c3OC)C[C@@H]21 = 401.0
[2H]C([2H])([2H])Oc1ccc2c(c1OC)CN1CCc3cc(OC)c(OC)cc3[C@@H]1C2 = 384.6
[2H]C([2H])([2H])Oc1cc2c(cc1OC([2H])([2H])[2H])[C@@H]1Cc3ccc(OC([2H])([2H])[2H])c(OC([2H])([2H])[2H])c3CN1CC2 = 389.5

Now look at this entry.
Input: # lookup: Heart rate of COc1cc2c(cc1OC)[C@@H]1Cc3ccc(OC)c(OC)c3CN1CC2 [THP, L-tetrahydropalmatine, reference compound]
Output: 387.3

----------
A collection of compounds and their measured Blood pressure
System: blood pressure in rats
test: Effects on blood pressure in rats
Type: in vivo, SD rats
measurement-setup: 40 mg/kg intragastric; time point 90
# number then unit; no other words

Input: What value of Blood pressure has been recorded for this entry: [2H]C([2H])([2H])Oc1ccc2c(c1OC)CN1CCc3cc(OC)c(OC)cc3[C@@H]1C2 [Formula I2]
Output: 92.8 ± 18.6 mmHg

----------
Listed next: entries and their corresponding Blood pressure.
System: blood pressure in rats
test: Effects on blood pressure in rats
Format: in vivo, SD rats
measurement-setup: 20 mg/kg intragastric; time point 120
Write down the numeric answer in mmHg and omit the unit.

Input: Can you look up the measured Blood pressure of [2H]C([2H])([2H])Oc1cc2c(cc1OC)CCN1Cc3c(ccc(OC([2H])([2H])[2H])c3OC)C[C@@H]21 [Formula I6] for me?
Output: 110.5

Input: Follow-up item: COc1cc2c(cc1OC)[C@@H]1Cc3ccc(OC)c(OC)c3CN1CC2 [THP, L-tetrahydropalmatine, reference compound]
Output: 112.7

Input: Try this molecule next: [2H]C([2H])([2H])Oc1cc2c(cc1OC([2H])([2H])[2H])[C@@H]1Cc3ccc(OC([2H])([2H])[2H])c(OC([2H])([2H])[2H])c3CN1CC2 [Formula I7]
Output: 114.1

Input: And what about the molecule [2H]C([2H])([2H])Oc1ccc2c(c1OC)CN1CCc3cc(OC)c(OC)cc3[C@@H]1C2 [Formula I2] ?
Output: 113.1

----------
Tested on: blood pressure in rats
test: Effects on blood pressure in rats
Format: in vivo, SD rats
measurement-setup: 20 mg/kg intragastric; time point 30
quantity-kind: Blood pressure (mmHg)
Give the value in mmHg but do not write mmHg after it.

[2H]C([2H])([2H])Oc1cc2c(cc1OC)CCN1Cc3c(ccc(OC([2H])([2H])[2H])c3OC)C[C@@H]21 = 108.5
COc1cc2c(cc1OC)[C@@H]1Cc3ccc(OC)c(OC)c3CN1CC2 [THP, L-tetrahydropalmatine, reference compound] = 109.4
[2H]C([2H])([2H])Oc1ccc2c(c1OC)CN1CCc3cc(OC)c(OC)cc3[C@@H]1C2 = 113.4

Then this compound:
Input: Could you share which Blood pressure value was measured for [2H]C([2H])([2H])Oc1cc2c(cc1OC([2H])([2H])[2H])[C@@H]1Cc3ccc(OC([2H])([2H])[2H])c(OC([2H])([2H])[2H])c3CN1CC2 ?
Output: 103.4

----------
System: heart rate in rats
test: Effects on heart rate in rats
Format: in vivo, SD rats
measurement-setup: 20 mg/kg intragastric; time point 120
quantity-kind: Heart rate (BTM)
The reply should contain only the number, in BTM.

Solved entries (count: 3):
[2H]C([2H])([2H])Oc1cc2c(cc1OC)CCN1Cc3c(ccc(OC([2H])([2H])[2H])c3OC)C[C@@H]21 = 396.7
[2H]C([2H])([2H])Oc1cc2c(cc1OC([2H])([2H])[2H])[C@@H]1Cc3ccc(OC([2H])([2H])[2H])c(OC([2H])([2H])[2H])c3CN1CC2 = 391.0
COc1cc2c(cc1OC)[C@@H]1Cc3ccc(OC)c(OC)c3CN1CC2 [THP, L-tetrahydropalmatine, reference compound] = 408.8

Please look at the following compound next.
Input: Return reported Heart rate; argument: [2H]C([2H])([2H])Oc1ccc2c(c1OC)CN1CCc3cc(OC)c(OC)cc3[C@@H]1C2
Output: 402.5

----------
# reported Heart rate; entries follow
Tested on: heart rate in rats
test: Effects on heart rate in rats
Assay type: in vivo, SD rats
measurement-setup: 40 mg/kg intragastric; time point 90
API: value field is a number in BTM; no unit string.

Input: Observed Heart rate on heart rate in rats for [2H]C([2H])([2H])Oc1ccc2c(c1OC)CN1CCc3cc(OC)c(OC)cc3[C@@H]1C2 , please.
Output: 353.8

Input: Moving on to the next compound: COc1cc2c(cc1OC)[C@@H]1Cc3ccc(OC)c(OC)c3CN1CC2 [THP, L-tetrahydropalmatine, reference compound]
Output: 340.0

Input: Moving on to the next compound: [2H]C([2H])([2H])Oc1cc2c(cc1OC)CCN1Cc3c(ccc(OC([2H])([2H])[2H])c3OC)C[C@@H]21
Output: 367.2

Input: How about [2H]C([2H])([2H])Oc1cc2c(cc1OC([2H])([2H])[2H])[C@@H]1Cc3ccc(OC([2H])([2H])[2H])c(OC([2H])([2H])[2H])c3CN1CC2 ?
Output: 343.2
